Values were extracted from patent US20230272055A1.

# TARGET OF ASSAY: T1, Recombinant MBP-mutCALR Type 1 fusion protein (human)
# T1 construct: custom made at Cepter; also called recombinant mutCALR protein
# ASSAY NAME: SPR, IgG captured, 1:1 fit, Exp. 1
I'd appreciate it if you could supply log10 Kd values for the items below.
Annotation: log10 of Kd, nM basis.

Batch: log10 Kd for all items listed.
1. anti-mutCALR antibody clone 28 (antibody, human IgG1, lambda, V domains shown, human IgG1) VH: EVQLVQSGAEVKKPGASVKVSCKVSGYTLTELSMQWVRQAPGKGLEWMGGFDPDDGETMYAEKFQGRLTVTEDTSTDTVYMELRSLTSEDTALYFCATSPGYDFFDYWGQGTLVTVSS VL: SYELTQPPSVSVAPGQTARITCGGNNIGSKSVHWYQQKPGQAPVLVVYDDSDRPSGIPERFSGSNSGNTATLTISRVEAGDEADYYCQVWDADSDQLIFGGGTKLTVLG
2. anti-mutCALR antibody clone 18 (antibody, human IgG1, lambda, V domains shown, human IgG1) VH: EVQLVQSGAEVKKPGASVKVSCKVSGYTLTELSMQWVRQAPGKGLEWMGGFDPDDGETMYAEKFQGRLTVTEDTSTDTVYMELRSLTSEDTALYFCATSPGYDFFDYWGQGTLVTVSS VL: SYVLTQPPSVSVAPGKTARITCGGNNIGSKSVHWYQQKPGQAPVLVVYDDSDRPLGIPERFSGSNSGNTATLTINRVEAGDEADYYCQVWDSSNDLLIFGGGTKLTVLG

1. 1.29
2. 0.42

Each binder below has a reported value. Please supply its log10 Kd.
1. anti-mutCALR antibody clone 10 (antibody, human IgG1, lambda, V domains shown, human IgG1) VH: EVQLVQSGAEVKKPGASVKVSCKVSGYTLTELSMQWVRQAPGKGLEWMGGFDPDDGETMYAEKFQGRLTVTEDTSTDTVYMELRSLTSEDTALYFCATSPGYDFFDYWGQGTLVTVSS VL: SYELTQPPSVSVAPGQTARIPCGGNNIGSEGVHWYQQKPGQAPVLVVYDDSDRPSGIPERFSGSNSGNTATLTISRVEAGDEADYYCQVWDSSNDLLIFGGGTKLTVLG
2. anti-mutCALR antibody clone 37 (antibody, human IgG1, lambda, V domains shown, human IgG1) VH: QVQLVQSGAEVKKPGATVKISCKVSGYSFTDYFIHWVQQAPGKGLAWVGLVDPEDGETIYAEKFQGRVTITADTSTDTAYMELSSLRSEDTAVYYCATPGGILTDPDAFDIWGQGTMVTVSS VL: QSALTQPASVSGSPGQSITISCTGTSSDVGGYNYVSWYQQHPGKAPKLMIYDVSNRPSGVSNRFSGSKSGNTASLTISGLQAEDEADYYCSSYTSSSTFYVFGTGTKVTVLG
3. anti-mutCALR antibody clone 40 (antibody, human IgG1, lambda, V domains shown, human IgG1) VH: EVQLVQSGAEVKKPGASVKVSCKVSGYTLTESSMHWVRQAPGKGLEWMGLVDPEDGETIYAQKFQGRVTMTEDTSTDTAYMELSSLRSEDTAVYYCAREEWSGDGDDAFDIWGQGTMVTVSS VL: QSVLTQPPSVSAAPGQKVTISCSGSSSNIGSYSVSWYQQLPGTAPKLLIYDNNKRPSGIPDRFSGSNSGTSATLGITGLQTGDEADYYCGTWDSSLSAWVFGGGTKLTVLG

0.14
0.99
0.02
